target entity: HSP70 (antigen; source and nucleotide state not stated) (Homo sapiens (Human)) (UniProt P0DMV8)
Sequence (P0DMV8 whole entry): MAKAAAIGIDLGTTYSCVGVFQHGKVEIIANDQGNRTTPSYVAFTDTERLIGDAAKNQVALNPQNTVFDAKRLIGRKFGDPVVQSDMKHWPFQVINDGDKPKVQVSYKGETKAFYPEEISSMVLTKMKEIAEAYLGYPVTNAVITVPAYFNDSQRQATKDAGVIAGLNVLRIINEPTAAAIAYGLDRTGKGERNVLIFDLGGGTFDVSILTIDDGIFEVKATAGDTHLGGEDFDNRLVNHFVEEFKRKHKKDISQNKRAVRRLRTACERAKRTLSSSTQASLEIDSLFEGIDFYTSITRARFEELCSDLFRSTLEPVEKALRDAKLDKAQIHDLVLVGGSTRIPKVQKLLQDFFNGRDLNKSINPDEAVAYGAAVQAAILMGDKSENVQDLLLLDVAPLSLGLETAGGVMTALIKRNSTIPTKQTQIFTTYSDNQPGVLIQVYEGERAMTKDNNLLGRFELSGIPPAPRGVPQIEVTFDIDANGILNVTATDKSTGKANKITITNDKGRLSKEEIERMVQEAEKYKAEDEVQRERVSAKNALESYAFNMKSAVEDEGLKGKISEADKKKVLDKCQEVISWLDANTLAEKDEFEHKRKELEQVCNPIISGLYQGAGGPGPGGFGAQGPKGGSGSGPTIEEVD
test method notes: biosensor, anti-human Fc capture, antigen 100 nM
test readout: % Diss (%)
Give the quantity in %, number only.

Worked cases, % Diss given:
INSERT INTO assay_data (binder, test_readout, test_result) VALUES
  ('h77A-1.52 (antibody, V domains shown) VH: QIQLVQSGVEVKKPGASVKVSCKASGYIFTNYGMNWVRQAPGQGLEWMGWINTYTGEPRYADDFKGRFTFTTDTSTSTAYMELRSLRSDDTAVYFCARYDHRMDYWGQGTLVTVSS VL: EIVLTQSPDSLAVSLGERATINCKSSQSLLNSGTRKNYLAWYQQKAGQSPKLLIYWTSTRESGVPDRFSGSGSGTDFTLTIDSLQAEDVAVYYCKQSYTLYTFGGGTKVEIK', '% Diss', -115),
  ('h77A-1.79 (antibody, V domains shown) VH: QIQLVQSGAEVKKPGASVKVSCKASGYTFTKYGMNWVRQAPGQGLEWMGWINTYTGEPRYADDFKGRFTFTTDTSTSTAYMELRSLRSDDTAVYFCARYDHRMDYWGQGTLVTVSS VL: EIVLTQSPDSLAVSLGERATINCKSSQSLLNSGTRKNYLAWYQQKPGQSPKLLIYWTSTRESGVPDRFSGSGSGTDFTLTIDSLQAEDVAVYYCKQSYNLYTFGGGTKVEIK', '% Diss', -37.4),
  ('h77A-1.80 (antibody, V domains shown) VH: QIQLVQSGAEVKKPGASVKVSCKASGYTFTNYGMNWVRQAPGQGLEWMGWINTYTGEPKYADDFKGRFTFTTDTSTSTAYMELRSLRSDDTAVYFCARYDHVMDYWGQGTLVTVSS VL: EIVLTQSPDSLAVSLGERATINCKSSQSLLNSGTRKNYLSWYQQKPGQSPKLIIYWTSTRESGVPDRFSGSGSGTDFTLTIDSLQAEDVAVYYCKQSYTLYTFGGGTKVEIK', '% Diss', -8.84);

Lab note: next binder to report on.
Prompt: Using the record for h77A-1.54 (antibody, V domains shown) VH: QIQLVQSGAEVKKPGASVKVSCKASGYTFTKYGMNWVRQAPGQGLEWMGWINTYTGEPKYGDDFKGRFTFTTDTSTSTAYMELRSLRSDDTAVYFCARYDHRMDYWGQGTLVTVSS VL: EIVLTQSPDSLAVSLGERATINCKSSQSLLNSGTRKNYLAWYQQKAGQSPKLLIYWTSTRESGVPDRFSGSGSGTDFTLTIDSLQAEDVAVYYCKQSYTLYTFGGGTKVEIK , report its % Diss.
Completion: -41.2
